Documented composite z-score across a set of compounds
Assay: binders of probe aHhip on microarray, primary screen, stem cell growth factor project, biochemical, small-molecule microarray, fluorescence 635/667 (AID 1087);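 further: score merges spot fluorescence at 667nm with spot signal to noise ratio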
Settings: higher = more signal
measurement_type: composite z-score

{"columns": ["smiles_text", "observed_result"],
 "data": [
  ["C=CCN1C(=O)[C@]2(O[C@H](CCn3cc(CCO)nn3)[C@@H]([Si](C)(C)c3ccc(OC)cc3)[C@@H]2C)c2cc(N3CCOC3=O)ccc21", -0.261],
  ["Cc1ccc(S[C@]2(C(=O)NCC(F)(F)F)CC(=O)N(Cc3ccccc3Cl)[C@@H]2c2ccc(CO)cc2I)cc1", -0.284],
  ["CCOC(=O)C[C@H]1[C@H](OC(=O)c2ccc(C(=O)c3ccccc3)cc2)[C@@H](NC(=O)c2ccc(-c3ccccc3)cc2)c2cc(OCCCO)ccc2N1C(=O)c1ccc2ccccc2n1", -0.193],
  ["COCC1=C2[C@@H](CCc3ccccc3)OB(O)C[C@@H]2n2c(=O)n(-c3ccccc3)c(=O)n2C1", -0.236],
  ["COCCOC(=O)N1C(=O)[C@@]2(c3cc(C#CC4(O)CCCCCC4)ccc31)[C@H](C(=O)N1CCN(c3ncccn3)CC1)[C@H]1C(=O)O[C@H](c3ccccc3)[C@H](c3ccccc3)N1[C@@H]2c1ccc(OCCO)cc1", 0.107],
  ["CC(=O)OC[C@H]1O[C@@H](ON=C[C@@H](C)[C@H](OCc2ccccc2)C(C)C)[C@H](OC(C)=O)[C@@H](OC(C)=O)[C@@H]1OC(C)=O", -0.134],
  ["COC(=O)[C@@H]1CCCN1C(=O)[C@@H](C)CO", 0.154],
  ["C=CC[C@]1(C(=O)NCc2ccccc2)N=C(c2ccc(OCCCO)cc2)O[C@H]1c1ccccc1", -0.0645],
  ["CC(C)CN1CCc2nc(-c3ccccc3)c3c(c2CC1)CO[C@@H](C)C3", 0.394],
  ["C=CCOC(=O)[C@H]1[C@@H]2C(=O)O[C@@H](c3ccccc3)[C@@H](c3ccccc3)N2[C@@H](c2ccc(OCCOC(=O)[C@H]3C[C@H]4C(=O)N[C@@H](Cc5ccccc5)C(=O)N4[C@H]3c3ccc(O)cc3)cc2)[C@]12C(=O)Nc1ccccc12", -0.109],
  ["O=C1O[C@@H](c2ccccc2)[C@@H](c2ccccc2)N2[C@@H](c3ccc(O)cc3)[C@]3(C(=O)Nc4ccccc43)[C@@H](C(=O)O)[C@H]12", -0.0212],
  ["C=CC[C@@H]1C=C[C@H](ON=C[C@@H](OC)[C@H](C)C=CCC(=O)OC)[C@@H](CO)O1", -0.0346],
  ["CO[C@H]([C@@H](C)[C@H](OC)c1ccccc1)[C@H](C)[C@@H](OC)[C@H](C)C(C)=O", 2.49],
  ["CC(C)CON=C1C[C@@H](O)[C@@H](O)[C@@H]2[C@@H]3C(=O)N(C[C@@H]4CCCO4)C(=O)[C@@H]3CC[C@H]12", -0.406]
]}
